Exercise: for every item that follows, state its recorded inhibition in vivo at 10 mg/kg.
- Tested on: Dextran-induced edema formation in the ears of mice
- experiment_notes: Inhibition of Dextran-induced edema formation in the ears of mice
- Assay type: in vivo, male Swiss mice
- condition_set: Mus musculus, po, Column B, at 10 mg/kg body weight, 1 h before dextran, read-out: inhibition of Dextran-induced blueing of the ears of mice, % inhibition
Just the number please, in %, no unit attached.

Exercise: Fill in: inhibition in vivo at 10 mg/kg of Cc1nn(C(C)C(O)c2ccc(Br)cc2)c(=O)n1-c1ccc(N2CCN(c3ccc(O)cc3)CC2)cc1 (stereo not shown) [Compound 7.70] is ___
Solution: 85

Exercise: Another molecule to check: CC(C(=O)c1ccc(F)cc1)n1ncn(-c2ccc(N3CCN(c4ccc(O)cc4)CC3)cc2)c1=O (stereo not shown) [Compound 7.14]
Solution: 70

Exercise: # repeat for CCCn1c(=O)n(-c2ccc(N3CCN(c4ccc(O)cc4)CC3)cc2)c(=O)n(C(C)C(=O)c2ccc(Br)cc2)c1=O (stereo not shown) [Compound 9.07]
Solution: 83

Exercise: And the next one, Cc1cc(N2CCN(c3ccc(-n4c(C)nn(C(C)C(=O)c5ccc(Br)cc5)c4=O)cc3)CC2)cc(C)c1O (stereo not shown) [Compound 7.51] ?
Solution: 83

Exercise: Entry Cc1nn(CC(C)C)c(=O)n1-c1ccc(N2CCN(c3ccc(O)cc3)CC2)cc1 [Compound 7.34] please
Solution: 66

Exercise: Check CCCn1c(=O)n(CCC)c(=O)n(-c2ccc(N3CCN(c4ccc(O)cc4)CC3)cc2)c1=O [Compound 9.03] too.
Solution: 94

Exercise: Try this molecule too: CCCCN1C(=O)N(c2ccc(N3CCN(c4ccc(O)cc4)CC3)cc2)C(C)(C)C1=O [Compound 6.10]
Solution: 93

---

Task for the reader: assign each of the following compounds its reported inhibition.
- study_system: 5-lipoxygenase (Rattus norvegicus, UniProt P12527)
- Construct: The supernatant, aliquoted and stored at -70° C., was used as the source of 5-lipoxygenase activity; endogenous in cells; host or cells: Rat basophilic leukemia (RBL) cells, 10,000×g supernatant of the sonicate (crude, not purified)
- Sequence (P12527 whole entry): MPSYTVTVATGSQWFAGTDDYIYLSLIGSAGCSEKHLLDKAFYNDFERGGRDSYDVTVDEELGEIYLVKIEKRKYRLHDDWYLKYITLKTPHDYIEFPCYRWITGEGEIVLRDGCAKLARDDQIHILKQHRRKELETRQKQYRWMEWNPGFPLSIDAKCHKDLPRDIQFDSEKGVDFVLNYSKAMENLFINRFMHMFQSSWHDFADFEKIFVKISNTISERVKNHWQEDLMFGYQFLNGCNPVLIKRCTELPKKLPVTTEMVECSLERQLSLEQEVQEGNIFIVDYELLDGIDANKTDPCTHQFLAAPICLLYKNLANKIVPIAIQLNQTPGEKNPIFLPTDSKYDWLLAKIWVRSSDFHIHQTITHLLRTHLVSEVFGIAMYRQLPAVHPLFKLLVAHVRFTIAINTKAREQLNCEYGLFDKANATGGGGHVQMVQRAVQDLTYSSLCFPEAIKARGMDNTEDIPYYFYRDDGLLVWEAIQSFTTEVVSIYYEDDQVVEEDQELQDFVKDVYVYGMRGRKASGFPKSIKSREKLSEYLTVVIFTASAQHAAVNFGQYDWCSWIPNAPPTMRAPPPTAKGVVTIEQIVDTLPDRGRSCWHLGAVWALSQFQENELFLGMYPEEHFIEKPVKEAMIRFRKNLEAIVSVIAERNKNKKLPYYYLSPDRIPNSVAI
- experiment_notes: Arachidonate 5-lipoxygenase inhibition in Rat Basophilic Leukemia Cells Supernatant
- Format: biochemical
- Design: dose or concentration left out as unconfirmed
- condition_set: Column A; 5-HPETE and LTB4 formation; read-out: 5-lipoxygenase inhibition in RBL cells supernatant, % inhibition
Structures can show the parent of a compound that is named as a salt.
Reply numerically in %, unit not repeated.

Exercise: Find the recorded inhibition belonging to CC(C(=O)c1cccc(Cl)c1)n1ncn(-c2ccc(N3CCN(c4ccc(O)cc4)CC3)cc2)c1=O (centres unmarked) [Compound 7.37] and report it.
Solution: 100

Exercise: Next compound: CCC(C)n1nc(C)n(-c2ccc(N3CCN(c4ccc(O)cc4)CC3)cc2)c1=O (centres unmarked) [Compound 7.33]
Solution: 80

Exercise: Would you kindly repeat that for CC(C)N1C(=O)N(c2ccc(N3CCN(c4ccc(O)cc4)CC3)cc2)C(C)(C)C1=O [Compound 6.09] ?
Solution: 84

Exercise: What about CCN1C(=S)N(c2ccc(N3CCN(c4ccc(O)cc4)CC3)cc2)C(=O)C1(C)C [Compound 5.13] ?
Solution: 71

Exercise: Let us now turn to CCC(C)n1nc(C)n(-c2ccc(N3CCN(c4cc(C)c(O)c(C)c4)CC3)cc2)c1=O (centres unmarked) [Compound 7.50]
Solution: 52

Exercise: Would you mind doing Cc1cc(N2CCN(c3ccc(-n4c(C)nn(C(C)C(O)c5ccc(Br)cc5)c4=O)cc3)CC2)cc(C)c1O (centres unmarked) [Compound 7.54] as well?
Solution: 79

Exercise: // same read-out, input: CCCCN1C(=O)N(c2ccc(N3CCN(c4ccc(O)cc4)CC3)cc2)C(C)(C)C1=O [Compound 6.10]
Solution: 90

Exercise: Also, CC12CCCN1C(=O)N(c1ccc(N3CCN(c4ccc(O)cc4)CC3)cc1)C2=O (centres unmarked) [Compound 5.10] please.
Solution: 69

Exercise: Please give the result for CCC(C)N1C(=O)N(c2ccc(N3CCN(c4ccc(O)cc4)CC3)cc2)C(C)(C)C1=O (centres unmarked) [Compound 6.12] too.
Solution: 90

Exercise: Same thing, different compound: CCCCN1C(=O)N(c2ccc(N3CCN(c4ccc(O)cc4)CC3)cc2)C(=O)C1C (centres unmarked) [Compound 5.03]
Solution: 79

Exercise: Also need CC(C(=O)c1ccc(Br)cc1)n1ncn(-c2ccc(N3CCN(c4ccc(O)cc4)CC3)cc2)c1=O (centres unmarked) [Compound 7.16] , thanks.
Solution: 94

Exercise: Another: CCCCN1C(=O)N(c2ccc(N3CCN(c4ccc(O)cc4)CC3)cc2)CC1(C)C [Compound 4.13]
Solution: 95

Exercise: Also, CC(C(O)c1ccc(Cl)cc1Cl)n1ncn(-c2ccc(N3CCN(c4ccc(O)cc4)CC3)cc2)c1=O (centres unmarked) [Compound 7.22] please.
Solution: 100

Exercise: // next record CN1C(=S)N(c2ccc(N3CCN(c4ccc(O)cc4)CC3)cc2)C(=O)C1(C)C [Compound 5.12]
Solution: 81

Exercise: Queued: CCC(C(=O)c1ccc(Br)cc1)n1ncn(-c2ccc(N3CCN(c4ccc(O)cc4)CC3)cc2)c1=O (centres unmarked) [Compound 7.36]
Solution: 100

Exercise: Also check CC(=O)C(C)N1C(=O)N(c2ccc(N3CCN(c4ccc(O)cc4)CC3)cc2)C(=O)C1(C)C (centres unmarked) [Compound 5.08]
Solution: 45

Exercise: Thanks! And CCCn1cnn(-c2ccc(N3CCN(c4ccc(O)cc4)CC3)cc2)c1=O [Compound 8.05] ?
Solution: 90

Exercise: Now give it for CCN1CCN(c2ccc(N3CCN(c4ccc(O)cc4)CC3)cc2)C1=O [Compound 4.02] too.
Solution: 84

Exercise: Next compound: CC(C(O)c1ccc(Br)cc1)n1ncn(-c2ccc(N3CCN(c4ccc(O)cc4)CC3)cc2)c1=O (centres unmarked) [Compound 7.35]
Solution: 100

Exercise: CCC(C)n1nc(C)n(-c2ccc(N3CCN(c4ccc(O)c(C)c4)CC3)cc2)c1=O (centres unmarked) [Compound 7.38] , same question.
Solution: 100

Exercise: Could you do the same for Cc1nn(C(C)C(=O)c2ccc(Br)cc2)c(=O)n1-c1ccc(N2CCN(c3ccc(O)cc3)CC2)cc1 (centres unmarked) [Compound 7.57] , please?
Solution: 90

Exercise: Follow-up entry: CCCn1c(=O)n(CCC)c(=O)n(-c2ccc(N3CCN(c4ccc(O)cc4)CC3)cc2)c1=O [Compound 9.03]
Solution: 58

Exercise: Please answer likewise for O=[N+]([O-])c1cc(F)ccc1N1CCN(c2ccc(O)cc2)CC1 [Compound 1.16, monohydrochloride]
Solution: 94

Exercise: Now this one: CCC(C)n1ncn(-c2ccc(N3CCN(c4ccc(O)cc4)CC3)cc2)c1=O (centres unmarked) [Compound 7.06]
Solution: 97

Exercise: // next record CC(C(=O)c1ccc(F)cc1)n1ncn(-c2ccc(N3CCN(c4ccc(O)cc4)CC3)cc2)c1=O (centres unmarked) [Compound 7.14]
Solution: 66

Exercise: // query: CCCN1C(=O)N(c2ccc(N3CCN(c4ccc(O)cc4)CC3)cc2)C(C)(C)C1=O [Compound 6.08]
Solution: 75

---

- System: Dextran-induced edema formation in the ears of mice
- experiment_notes: Inhibition of Dextran-induced edema formation in the ears of mice
- Assay type: in vivo, male Swiss mice
- condition_set: Mus musculus, po, Column B, at 10 mg/kg body weight, 1 h before dextran, read-out: inhibition of Dextran-induced blueing of the ears of mice, % inhibition
measure: inhibition in vivo at 10 mg/kg
Returns: string containing the number followed by the unit.

Exercise: Reported inhibition in vivo at 10 mg/kg for CCCCN1C(=O)N(c2ccc(N3CCN(c4ccc(O)cc4)CC3)cc2)C(=O)C1C (stereo not shown) : what is it?
Solution: 72%

Exercise: Follow-up entry: Cc1nn(C(C)C(=O)c2ccc(Br)cc2)c(=O)n1-c1ccc(N2CCN(c3ccc(O)cc3)CC2)cc1 (stereo not shown)
Solution: 82%

Exercise: Please answer likewise for CCC(C)N1C(=O)N(c2ccc(N3CCN(c4ccc(O)cc4)CC3)cc2)C(C)(C)C1=O (stereo not shown)
Solution: 53%

Exercise: Moving on to the next molecule: CCC(C(O)c1ccccc1)n1ncn(-c2ccc(N3CCN(c4ccc(O)cc4)CC3)cc2)c1=O (stereo not shown)
Solution: 85%

---

- Test system: Dextran-induced edema formation in the ears of mice
- experiment_notes: Inhibition of Dextran-induced edema formation in the ears of mice
- Type: in vivo, male Swiss mice
- condition_set: Mus musculus, po, Column B, at 10 mg/kg body weight, 1 h before dextran, read-out: inhibition of Dextran-induced blueing of the ears of mice, % inhibition
measure: inhibition in vivo at 10 mg/kg (%)
Please reply with the bare figure in % and do not write the unit itself.

Exercise: Entry CCC(C(=O)c1ccc(Cl)cc1)n1ncn(-c2ccc(N3CCN(c4ccc(O)cc4)CC3)cc2)c1=O (stereo not drawn) [Compound 7.41] has what inhibition in vivo at 10 mg/kg?
Solution: 82

Exercise: Item: CCC(C)n1nc(C)n(-c2ccc(N3CCN(c4ccc(O)c(C)c4)CC3)cc2)c1=O (stereo not drawn) [Compound 7.38]
Solution: 88

Exercise: Would you kindly repeat that for CCC(C)n1nc(C)n(-c2ccc(N3CCN(c4cc(C)c(O)c(C)c4)CC3)cc2)c1=O (stereo not drawn) [Compound 7.50] ?
Solution: 88

Exercise: Now the same for O=c1n(-c2ccc(N3CCN(c4ccc(O)cc4)CC3)cc2)cnn1CC(F)(F)F [Compound 7.11]
Solution: 81

Exercise: What do you have for CCN1C(=S)N(c2ccc(N3CCN(c4ccc(O)cc4)CC3)cc2)C(=O)C1(C)C [Compound 5.13] ?
Solution: 15

Exercise: Now this one: CN1C(=S)N(c2ccc(N3CCN(c4ccc(O)cc4)CC3)cc2)C(=O)C1(C)C [Compound 5.12]
Solution: 88

Exercise: Okay, and CC12CCCN1C(=O)N(c1ccc(N3CCN(c4ccc(O)cc4)CC3)cc1)C2=O (stereo not drawn) [Compound 5.10] ?
Solution: 75

Exercise: Request: Cc1cc(N2CCN(c3ccc(-n4c(C)nn(C(C)C(O)c5ccc(Br)cc5)c4=O)cc3)CC2)cc(C)c1O (stereo not drawn) [Compound 7.54]
Solution: 76

Exercise: // query: CCC(C(=O)c1ccc(Br)cc1)n1ncn(-c2ccc(N3CCN(c4ccc(O)cc4)CC3)cc2)c1=O (stereo not drawn) [Compound 7.36]
Solution: 93
